Experiment: loss of viability in HepG2 cells – cell-based, CellTiter-Glo, cherry-picked, cytotoxicity control for Shn3 inhibitor project, dose response (AID 624134)
Assay type: functional
Active and inactive are the calls of the source.
endpoint-name: AC50

1) CCOc1ccc(CCN2C(=S)N([C@@H](CC(C)C)CN3CCCC3CN3C(=S)NC[C@@H]3Cc3ccc(O)cc3)C[C@@H]2Cc2ccc(O)cc2)cc1 (stereo not given in full) : 53.9 µM (active)
2) Cc1ccc(Nc2nc(NCC3CC3)nc3ccsc23)c(C)c1 : > 70 µM (inactive)
3) CN(C)c1ccc(/C=C/c2nc3ccccc3s2)cc1 : 25.6 µM (active)
4) COc1cc(OC)c(OC)cc1CCC(C)NCCC(c1ccccc1)c1ccccc1 (stereo not given) : 8.98 µM (active)
5) COc1ccc(CNCC(O)COc2cccc3c2OC(C)(C)C3)cc1 (stereo not given) : 49.4 µM (active)

* * *

Molecular target: Large T antigen (Simian virus 40);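 also: Confirmatory-stage PubChem screen for compounds that inhibit SV40 T antigen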
Sequence (P03070 whole entry): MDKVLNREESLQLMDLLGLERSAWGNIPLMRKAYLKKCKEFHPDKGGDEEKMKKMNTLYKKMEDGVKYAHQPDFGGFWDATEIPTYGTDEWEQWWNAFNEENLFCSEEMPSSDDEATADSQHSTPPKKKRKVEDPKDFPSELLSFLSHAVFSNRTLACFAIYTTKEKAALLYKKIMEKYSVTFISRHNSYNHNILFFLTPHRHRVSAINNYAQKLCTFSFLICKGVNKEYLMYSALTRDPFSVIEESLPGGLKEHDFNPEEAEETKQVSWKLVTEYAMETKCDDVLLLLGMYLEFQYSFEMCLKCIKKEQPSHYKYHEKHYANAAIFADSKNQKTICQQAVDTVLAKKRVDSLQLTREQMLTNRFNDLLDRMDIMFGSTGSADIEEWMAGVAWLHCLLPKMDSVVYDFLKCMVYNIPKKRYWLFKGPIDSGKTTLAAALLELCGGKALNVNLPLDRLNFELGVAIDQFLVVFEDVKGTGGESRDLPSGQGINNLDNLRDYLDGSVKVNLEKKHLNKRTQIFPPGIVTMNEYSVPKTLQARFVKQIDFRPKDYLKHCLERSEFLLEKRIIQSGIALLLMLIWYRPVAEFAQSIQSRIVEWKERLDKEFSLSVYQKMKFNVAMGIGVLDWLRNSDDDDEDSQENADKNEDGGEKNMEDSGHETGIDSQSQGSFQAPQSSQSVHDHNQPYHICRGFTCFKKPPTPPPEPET
Assay type: functional, Betapolyomavirus macacae
Calls of active or inactive are those of the source.
Listed compounds paired with reported IC50
endpoint-name: IC50

1) Cc1cccc(/C=N/n2c(S)nnc2-c2ccncc2)c1 : 43.7 µM (active)
2) COc1cc(/C=N/Nc2nc(O)nnc2C)ccc1O : 6.41 µM (active)
3) COc1cc(CNc2ccc(N3CCCCC3)cc2)ccc1OCC(=O)NC(C)(C)C : 12.5 µM (active)
4) CC(NC(=O)Nc1ccc(O)cc1)(C(F)(F)F)C(F)(F)F : 14.3 µM (active)
5) O=C1NC(=S)S/C1=C/c1ccc(N2CCOCC2)o1 : 18.4 µM (active)
6) CC(C)C(=O)c1ccc(O)c(O)c1 : 30.9 µM (active)
7) COc1ccc(/C=C2/C(=O)NC(=O)N(Cc3ccco3)C2=O)cc1 : 23.5 µM (active)
8) C=CCN=C(S)Nc1ccc(N(C)C)cc1 : 3.24 µM (active)
9) CCOc1ccc(NCc2cccn2-c2nnc(N3CCC(C(=O)NCCCN4CCCCC4C)CC3)s2)cc1 (stereo unspecified) : 19.5 µM (active)
10) CCn1c(SCC(=O)Nc2ccc(N(C)C)cc2)nnc1C1CC1 : 9.49 µM (active)
11) Oc1ccc(/C=N/NP(=S)(c2ccccc2)c2ccccc2)cc1O : 54.9 µM (active)

* * *

Experiment: viability of HCT116 lacking mutant beta-catenin – cell-based, human colon tumor, dose response (AID 1045);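 also: HCT116 colon tumor cells with beta catenin knocked out; cells exposed to compound for 60 hours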
Assay type: functional
Calls of active or inactive are those of the source.
Listed molecules paired with reported EC50
endpoint-name: EC50

1. O=C1C(Nc2ccccc2)=C/C(=N/S(=O)(=O)c2cccs2)c2ccccc21 : 4.63 µM (active)
2. COc1cc(CNC(C)(C)CO)cc(Br)c1OCc1ccc(Cl)cc1Cl : 7.94 µM (active)
3. Fc1cnc(N2CCc3ccccc32)nc1N1CCc2ccccc21 : 25.5 µM (active)
4. O=C(COc1ccc(Cl)cc1Cl)NN=C1c2ccccc2-c2ccccc21 : 6.99 µM (active)
5. C=C(C)COc1ccc2c(C)c(CC(=O)OC)c(=O)oc2c1C : 31.9 µM (active)
6. COc1ccc(-c2nc3scc(-c4ccc(OC)c(OC)c4)c3c(=O)o2)cc1 : 16.4 µM (active)
7. COc1cccc(CN(C(=O)Cc2c[nH]c3ccccc23)C(C(=O)NC2CCCCC2)c2ccc(C)o2)c1 (configuration not stated) : 22.3 µM (active)
